The origin of these recorded values is patent US9662327B2.

- target_entity: IDH1 R132H (Homo sapiens (Human), UniProt O75874, R132H)
- Sequence (O75874 whole entry R132H): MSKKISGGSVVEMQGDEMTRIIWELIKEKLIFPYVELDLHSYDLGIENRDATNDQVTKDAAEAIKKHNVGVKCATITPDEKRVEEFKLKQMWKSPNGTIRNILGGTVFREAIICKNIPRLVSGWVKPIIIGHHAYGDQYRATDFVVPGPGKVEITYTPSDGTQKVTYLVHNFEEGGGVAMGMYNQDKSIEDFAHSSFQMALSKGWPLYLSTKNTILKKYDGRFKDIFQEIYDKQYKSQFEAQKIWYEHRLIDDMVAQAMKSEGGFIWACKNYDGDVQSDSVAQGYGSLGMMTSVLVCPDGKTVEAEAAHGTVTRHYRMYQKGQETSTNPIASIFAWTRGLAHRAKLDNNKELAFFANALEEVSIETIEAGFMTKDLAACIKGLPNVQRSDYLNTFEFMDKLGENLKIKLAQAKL
- measurement_description: Assays for IDH1 R132H Inhibitors (NADPH/aKG, resazurin detection)
- Format: biochemical
- condition_context: IDH1 R132H enzyme, Table 2; read-out: IDHR132H Activity
readout: IC50

| compound | IC50 |
| --- | --- |
| CC(C)[C@@H]1CN(c2nc(C3CC3)c3c(c2C#N)CC(C)(C)OC3)CCN1C(=O)CCC(=O)O | 1000 to 10000 nM |

List reported IC50 for each of these compounds:
1. CC1(C)Cc2c(C#N)c(N3CCN(C(=O)c4ccoc4)C(c4ccccc4)C3)nc(C3CCCCC3)c2CO1 (stereo not shown)
2. Cc1ccoc1C(=O)N1CCN(c2nc(C3CC3)c3c(c2C#N)CC(C)(C)OC3)C[C@H]1C(C)C
3. C[C@@H]1CN(c2nc(C3CCCCC3)c3c(c2C#N)CCOC3)CCN1C(=O)c1ccsc1
4. CCCC(=O)N1CCN(c2nc(C3CC3)c3c(c2C#N)CC(C)(C)OC3)C[C@H]1C(C)C

Given back:
1000 to 10000 nM
1000 to 10000 nM
1000 to 10000 nM
< 500 nM

List reported IC50 for each of these compounds:
1. C[C@@H]1CN(c2nc(C3CCCCC3)c3c(c2C#N)CCOC3)CCN1C(=O)CCl
2. C[C@@H]1CN(c2nc(C3CCCCC3)c3c(c2C#N)CCOC3)CCN1C(=O)Cc1cccnc1

Given back:
["< 500 nM", "1000 to 10000 nM"]

###

Record form. Attribute: IC50. Fill in for each entry.
- target_entity: IDH1 R132H (Homo sapiens (Human), UniProt O75874, R132H)
- measurement_description: Assays for IDH1 R132H Inhibitors (NADPH/aKG, resazurin detection)
- Type: biochemical
- condition_context: IDH1 R132H enzyme, Table 3; read-out: R132H IC50

Previously resolved entries follow.
| compound | meas_value |
| --- | --- |
| CC1(C)Cc2c(C#N)c(N3CCN(C(=O)CC4COC4)[C@H](C4CC4)C3)nc(C3CC3)c2CO1 [Compound 466] | 500 to 1000 nM |
| CC(C)[C@@H]1CN(c2nc(C3CC3)c3c(c2C#N)CC(C)(C)OC3)CCN1C(=O)CCF [Compound 437] | < 500 nM |
| C=CC(=O)N1CCc2c(C3CC3)nc(N3CCN(C(=O)CCOC)[C@H](C4CC4)C3)c(C#N)c2C1 [Compound 483] | < 500 nM |

List reported IC50 for each of these compounds:
1. CC1(C)Cc2c(C#N)c(N3CCN(C(=O)C4CC4)[C@H](C4CC4)C3)nc(C3CC3)c2CO1 [Compound 461]
2. COC(=O)CC(=O)N1CCN(c2nc(C3CC3)c3c(c2C#N)CC(C)(C)OC3)C[C@H]1C1CC1 [Compound 440]

Given back:
1: < 500 nM; 2: < 500 nM

List reported IC50 for each of these compounds:
1. CC1CCN(c2nc(C3CC3)c3c(c2C#N)CC(C)(C)OC3)CCN1C(=O)C1CC1 (stereo not shown) [Compound 475]
2. CCOC(=O)C1CN(c2nc(C3CC3)c3c(c2C#N)CC(C)(C)OC3)CCN1C(=O)Cc1cccs1 (stereo not shown) [Compound 421]

Given back:
500 to 1000 nM
500 to 1000 nM
